meta.source: patent US20220162261A1

- measured-target: T1, rh integrin α4β7 (R&D Systems #5397-A30) (human, UniProt P13612 34-970; P26010 20-723)
- T1 construct: bought; coated on a nickel coated plate; also called immobilized α4β7; immobilized α4β7 integrin protein
- protocol-summary: competition ELISA vs MAdCAM-1
pIC50: −log10 of the molar value. Bridge positions count the residues as written; N and C are the ends. Square brackets hold non-standard residues; d marks the D form. Phe(4-tBu) = CC(C)(C)c1ccc(C[C@H](N)C(=O)O)cc1; NMeR = CN[C@@H](CCCNC(=N)N)C(=O)O; hPhe = N[C@@H](CCc1ccccc1)C(=O)O; β3hE = N[C@@H](CCC(=O)O)CC(=O)O; NMeK = CN[C@@H](CCCCN)C(=O)O; Pen = CC(C)(S)[C@H](N)C(=O)O
measurement-type: pIC50

Example binders with recorded pIC50:
Item Ac-[Pen][NMeR]SDTL[Pen][Phe(4-tBu)][β3hE][dK]-NH2 (disulfide 1-7; not fully specified (residue 10); printed as (Ac Pen N-Me-R S D T L Pen F(4tBu) b-H-E k NH2)2 DIG, disulfide Pen-Pen; also: homodimer, two subunits joined by DIG linker, the second listing is the acetate salt) [SEQ ID NO: 132] : provide pIC50
≥ 8.00

State its pIC50 for this binder: Ac-[Pen][NMeR]SDTL[Pen][hPhe][dE][dK]-NH2 (disulfide 1-7; SMILES CC(=O)N[C@@H]1C(=O)N(C)[C@@H](CCCNC(=N)N)C(=O)N[C@@H](CO)C(=O)N[C@@H](CC(=O)O)C(=O)N[C@@H]([C@@H](C)O)C(=O)N[C@@H](CC(C)C)C(=O)N[C@H](C(=O)N[C@@H](CCc2ccccc2)C(=O)N[C@H](CCC(=O)O)C(=O)N[C@H](CCCCN)C(N)=O)C(C)(C)SSC1(C)C) [SEQ ID NO: 14]
< 7.60

Continuing:
Return value of pIC50 for input Ac-[Pen][NMeR]SDTL[Pen]W[β3hE][NMeK]-NH2 (disulfide 1-7; not fully specified (residue 10); printed as (Ac Pen N-Me-R S D T L Pen W b-H-E N-Me-K NH2)2 DIG, disulfide Pen-Pen; also: homodimer (…)2 DIG via Lys10 NZ) [SEQ ID NO: 141] , no commentary.
≥ 8.00
